The molecules listed here are annotated with their melting point.

# molecule, melting point
data = [
    ("Cc1ccc2c(c1)C(C(=O)O)c1cc(Br)ccc1CO2 (configuration not stated)", "168 to 170 °C"),
    ("CC(C)CN1C(=O)C2CC(c3ccc([N+](=O)[O-])cc3)(C2)C1=O", "136 to 137 °C"),
    ("CC(C)Oc1cc(-n2nc(C(F)(F)F)n(C)c2=O)c(Cl)cc1Cl", "96 to 98 °C"),
    ("Cc1sc2ncc(C(=O)/C=C/c3ccccc3)n2c1C", "189 to 190 °C"),
    ("Fc1cc(CC2(Cc3ccnc(F)c3)c3ccccc3-c3nc(-c4ccccc4)ncc32)ccn1", "213 to 215 °C"),
    ("CCCCCCCCC(=O)NCc1ccc(C(=O)O)cc1", "178 to 180 °C"),
    ("C/C(=C\\c1cccc2c1NCCNC2=O)CCCC(=O)O", "257 to 259 °C"),
    ("COc1cc(-c2ccc3ncc(NC(=O)Nc4ccccc4)nc3n2)ccc1O", "240 °C"),
    ("OCc1cnoc1-c1cccc(Cl)c1", "80 to 81 °C"),
    ("O=C(N[C@@H](Cc1ccc2ccccc2c1)[C@H](O)CCl)OCc1ccccc1", "173 to 174 °C"),
    ("Cc1sc(C2=NOC(c3cc(Cl)cc(Cl)c3)(C(F)(F)F)C2)cc1C(=O)NCC(=O)NCC#N (configuration not stated)", "158 to 161 °C"),
    ("COc1ccccc1N(CN1C(=O)CSC1=O)C(=O)CCl", "188 to 191 °C"),
]

----------
The molecules listed here are annotated with their melting point.

# smilesStr, melting point
data = [
    ("CC(C)(Oc1ccc(C(=O)CN2CCN(c3ccncc3)CC2)cc1)C(=O)O", "163 to 167 °C"),
    ("S=c1cc(N2CCCC2)ss1", "230 °C"),
    ("CCOc1nc(NCc2ccco2)nc(Nc2ccc3nc(C)[nH]c3c2)n1", "150 to 152 °C"),
    ("O=C1C=CC(=O)c2nccnc21", "172 to 173 °C"),
    ("CC(=O)Nc1ccc(C2=NNC(=O)Cc3cc4c(cc32)OCO4)cc1", "177 to 180 °C"),
    ("Nc1cc(Cl)cc(Cc2cc(Cl)cc(N)c2O)c1O", "212 to 215 °C"),
    ("C#Cc1ccc(-c2ccc(-c3ccc(C#C)cc3)n2-c2ccc(C)cc2)cc1", "235 to 237 °C"),
]

----------
# molecule, melting point
data = [
    ("COc1ccc(OC(C)c2ccnc3ncnn23)cc1 (stereo unspecified)", "112 to 114 °C"),
    ("CCCCN(CCCC)c1ccc2cc(Cl)cnc2c1C#N", "112 °C"),
    ("CCOC(=O)c1cc2c(OC)cccc2[nH]1", "168 to 170 °C"),
    ("O=S(=O)(c1ccccc1)N1CCCCC1CSc1ccc(Cl)cc1 (stereo unspecified)", "78.5 to 80 °C"),
    ("CC(=O)Nc1ccccc1C(=O)NCCN1CCC(Nc2nc3ccccc3n2Cc2ccc(F)cc2)CC1", "171 °C"),
    ("C[C@@H]1Nc2ccc(-c3cc(F)cc(C#N)c3)cc2[C@](C)(c2ccccc2)O1", "128 to 129 °C"),
    ("CC(C)COc1ccc(C(=O)N/C(=C\\c2ccc(OCC(F)(F)F)cc2)C(=O)NCCO)cc1", "176 to 178 °C"),
    ("CCOC(=O)C(NO)NC(C)=O (stereo unspecified)", "119 to 121 °C"),
    ("COCc1cnc2c(NC(=O)c3ccccc3C(F)(F)F)cccc2c1N1CCN(C)C1=O", "156 °C"),
    ("CC(C)C(NC(=O)N1CCc2cc(S(=O)(=O)N3CCN(c4cccc(Cl)c4)CC3)ccc21)C(=O)O (stereo unspecified)", "185 to 186 °C"),
    ("CC(C)CN(Cc1nc(-c2ncn3c2CN(C)C(=O)c2c(Cl)cccc2-3)no1)CC(C)C", "125 to 128 °C"),
]
